Target: Prostaglandin E synthase (Homo sapiens)
Sequence (O14684 whole entry): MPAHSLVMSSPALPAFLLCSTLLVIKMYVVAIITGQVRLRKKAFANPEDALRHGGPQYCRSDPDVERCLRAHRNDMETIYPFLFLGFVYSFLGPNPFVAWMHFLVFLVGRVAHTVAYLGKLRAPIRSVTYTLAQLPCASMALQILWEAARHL
Experiment: Inhibition of mPGES-1 in human IL-1beta-stimulated A549 cell microsomes assessed as reduction of PGE2 formation from PGH2 preincubated for 15 mins by HPLC analysis
READOUT: IC50 (nM)
Give bare numbers, in nM.

Example entries begin here.
INSERT INTO results (compound, reading) VALUES
  ('COc1cc(/C=C/C(=O)CC(=O)/C=C/c2ccc(OC/C=C(\C)CC/C=C(\C)CCC=C(C)C)c(OC)c2)ccc1OC/C=C(\C)CC/C=C(\C)CCC=C(C)C', 2000),
  ('COc1cc(/C=C/C(=O)CC(=O)/C=C/c2ccc(OCC=C(C)C)c(OC)c2)ccc1O', 930),
  ('COc1cc(/C=C/C(=O)C(CC=C(C)C)C(=O)/C=C/c2ccc(OCC=C(C)C)c(OC)c2)ccc1OCC=C(C)C', 2000),
  ('COc1cc(/C=C/C(=O)C(C/C=C(\C)CCC=C(C)C)C(=O)/C=C/c2ccc(OC/C=C(\C)CCC=C(C)C)c(OC)c2)ccc1OC/C=C(\C)CCC=C(C)C', 2000),
  ('COc1cc(/C=C/C(=O)CC(=O)/C=C/c2ccc(O)c(OC)c2)ccc1O [CURCUMIN]', 220),
  ('COc1cc(/C=C/C(=O)CC(=O)/C=C/c2ccc(OC/C=C(\C)CC/C=C(\C)CCC=C(C)C)c(OC)c2)ccc1O', 2000);

Turning now to a further record.
Prompt line: Using the record for COc1cc(/C=C/C(=O)CC(=O)/C=C/c2ccc(OC/C=C(\C)CCC=C(C)C)c(OC)c2)ccc1OC/C=C(\C)CCC=C(C)C , state its measured IC50.
Response line: 2000

* * *

Assign IC50 to each entry below.
Molecular target: Histone deacetylase
Assay: Inhibition of HDAC in human HeLa cell nuclear extract using BML-KI104 Fluor de Lys as substrate by fluorescence-based assay
One number for each entry, in µM.

Observe how each entry below is paired with its result.
INSERT INTO assay_data (smiles_code, reading) VALUES
  ('COc1cc(/C=C/C(=O)CC(=O)/C=C/c2ccc(OC/C=C(\C)CC/C=C(\C)CCC=C(C)C)c(OC)c2)ccc1OC/C=C(\C)CC/C=C(\C)CCC=C(C)C', 122),
  ('COc1cc(/C=C/C(=O)CC(=O)/C=C/c2ccc(OC/C=C(\C)CCC=C(C)C)c(OC)c2)ccc1O', 495),
  ('COc1cc(/C=C/C(=O)CC(=O)/C=C/c2ccc(OCC=C(C)C)c(OC)c2)ccc1OCC=C(C)C', 347),
  ('COc1cc(/C=C/C(=O)C(C/C=C(\C)CCC=C(C)C)(C/C=C(\C)CCC=C(C)C)C(=O)/C=C/c2ccc(OC/C=C(\C)CCC=C(C)C)c(OC)c2)ccc1OC/C=C(\C)CCC=C(C)C', 786),
  ('COc1cc(/C=C/C(=O)C(C/C=C(\C)CCC=C(C)C)C(=O)/C=C/c2ccc(OC/C=C(\C)CCC=C(C)C)c(OC)c2)ccc1OC/C=C(\C)CCC=C(C)C', 217),
  ('COc1cc(/C=C/C(=O)CC(=O)/C=C/c2ccc(OC/C=C(\C)CCC=C(C)C)c(OC)c2)ccc1OC/C=C(\C)CCC=C(C)C', 188),
  ('COc1cc(/C=C/C(=O)CC(=O)/C=C/c2ccc(OCC=C(C)C)c(OC)c2)ccc1O', 5620);

# ---- query compound ----
Prompt line: Identify measured IC50 corresponding to COc1cc(/C=C/C(=O)CC(=O)/C=C/c2ccc(OC/C=C(\C)CC/C=C(\C)CCC=C(C)C)c(OC)c2)ccc1O
Response line: 84.2
